List of Firefly, F4, 1% FBS, cmpd/DMSO (mean) values.
# TARGET DESC: NR2F6 (Homo sapiens, UniProt P10588)
# Construct: expressed in transfected cells; also transient transfection
# Sequence (P10588 whole entry): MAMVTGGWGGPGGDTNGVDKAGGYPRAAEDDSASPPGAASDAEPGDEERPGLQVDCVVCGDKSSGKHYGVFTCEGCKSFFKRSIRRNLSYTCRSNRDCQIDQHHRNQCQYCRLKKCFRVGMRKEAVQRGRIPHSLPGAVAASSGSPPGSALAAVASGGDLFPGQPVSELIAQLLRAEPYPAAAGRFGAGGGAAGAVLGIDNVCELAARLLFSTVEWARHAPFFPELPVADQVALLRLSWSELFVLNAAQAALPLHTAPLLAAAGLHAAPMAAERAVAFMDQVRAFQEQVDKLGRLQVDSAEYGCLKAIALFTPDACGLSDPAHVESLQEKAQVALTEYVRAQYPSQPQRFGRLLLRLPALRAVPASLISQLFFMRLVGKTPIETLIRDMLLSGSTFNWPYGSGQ
# PROTOCOL DESCRIPTION: NR2F6 agonist screening, Firefly signal cmpd/DMSO
# Type: cell-based
# RECORDED CONDITIONS: F4; 1% FBS; 0.5 uM

[
  {
    "SMILES REPRESENTATION": "CCCN[C@H]1CS(=O)(=O)C[C@@H]1S(=O)(=O)c1ccc(Cl)cc1",
    "Firefly, F4, 1% FBS, cmpd/DMSO (mean)": 0.9
  },
  {
    "SMILES REPRESENTATION": "CC(C)N[C@H]1CS(=O)(=O)C[C@@H]1S(=O)(=O)c1ccc(Cl)cc1",
    "Firefly, F4, 1% FBS, cmpd/DMSO (mean)": 1.1
  },
  {
    "SMILES REPRESENTATION": "CC(C)CN[C@H]1CS(=O)(=O)C[C@@H]1S(=O)(=O)c1ccc(Cl)cc1",
    "Firefly, F4, 1% FBS, cmpd/DMSO (mean)": 0.8
  },
  {
    "SMILES REPRESENTATION": "COc1ccc(CCN[C@H]2CS(=O)(=O)C[C@@H]2S(=O)(=O)c2ccc(Cl)cc2)cc1OC",
    "Firefly, F4, 1% FBS, cmpd/DMSO (mean)": 0.9
  }
]

###

# Tested on: HEK293 pGL4
# PROTOCOL DESCRIPTION: Firefly_pGL signal, cmpd/DMSO (pGL4 control cells)
# Format: cell-based
# RECORDED CONDITIONS: Homo sapiens, HEK293, Table 14; 2 uM; read-out: Firefly pGL4, cmpd/DMSO (mean)
EXPERIMENTAL READOUT: fold induction at 2 µM

[
  {
    "MOLECULE": "COC(=O)c1ccc2oc(=O)c(S(=O)(=O)c3ccccc3)cc2c1",
    "RECORDED NUMBER": 1.1
  },
  {
    "MOLECULE": "Cc1ccc(NC(=O)c2noc3c2CC(C(C)(C)C)CC3)cc1C (stereo not drawn)",
    "RECORDED NUMBER": 1.1
  },
  {
    "MOLECULE": "Cc1cc(C)nc(Sc2nnc(-c3ccc(C)c(S(=O)(=O)N4CCOCC4)c3)c3ccccc23)n1",
    "RECORDED NUMBER": 1.2
  },
  {
    "MOLECULE": "Cc1ccn2cc(-c3ccc(F)cc3)cc2c1",
    "RECORDED NUMBER": 1.7
  },
  {
    "MOLECULE": "Cc1cc(NC(=O)CCS(=O)(=O)c2nc(-c3ccc4c(c3)OCO4)cc(C(F)(F)F)n2)no1",
    "RECORDED NUMBER": 0.7
  },
  {
    "MOLECULE": "CCc1cc(C(=O)Nc2ccn(Cc3ccc(C)cc3)n2)no1",
    "RECORDED NUMBER": 1.3
  },
  {
    "MOLECULE": "Cc1ccc(NC(=O)c2noc3c2CC(C)CC3)cc1C (stereo not drawn)",
    "RECORDED NUMBER": 1.5
  },
  {
    "MOLECULE": "COC(=O)c1cnc2c(C)cc(C)cc2c1NCCCN(C)C",
    "RECORDED NUMBER": 1.4
  },
  {
    "MOLECULE": "CCc1cccc(Nc2cnn(-c3nc4ccccc4s3)c(=O)c2Cl)c1",
    "RECORDED NUMBER": 0.9
  }
]

###

# System: Renilla_ERa
# PROTOCOL DESCRIPTION: Renilla signal in ERα counterscreen (Renilla_ERa)
# Format: cell-based
# RECORDED CONDITIONS: 10 uM
EXPERIMENTAL READOUT: Renilla ERalpha transient, cmpd/DMSO (mean)

[
  {
    "COMPOUND": "CC(C)Nc1nc(N2CCCC2)nc(N2CCn3c(cccc3=O)C2)n1",
    "RECORDED NUMBER": 1.0
  },
  {
    "COMPOUND": "CCCCCCNc1nc(OCC)nc(N2CCn3c(cccc3=O)C2)n1",
    "RECORDED NUMBER": 1.2
  },
  {
    "COMPOUND": "CCCCCCNc1nc(OC)nc(N2CCn3c(cccc3=O)C2)n1",
    "RECORDED NUMBER": 1.2
  },
  {
    "COMPOUND": "O=c1cccc2n1CCN(c1nc(NCC3CCCO3)nc(N3CCCC3)n1)C2 (stereo not shown)",
    "RECORDED NUMBER": 1.0
  },
  {
    "COMPOUND": "CC(C)Nc1nc(N2CCOCC2)nc(N2CCn3c(cccc3=O)C2)n1",
    "RECORDED NUMBER": 1.1
  },
  {
    "COMPOUND": "CC1CCN(c2nc(N3CCC(C)CC3)nc(N3CCn4c(cccc4=O)C3)n2)CC1",
    "RECORDED NUMBER": 1.1
  },
  {
    "COMPOUND": "O=c1cccc2n1CCN(c1nc(NCC3CCCO3)nc(N3CCOCC3)n1)C2 (stereo not shown)",
    "RECORDED NUMBER": 1.1
  }
]

###

# TARGET DESC: NR2F6 (Homo sapiens, UniProt P10588)
# Construct: expressed in transfected cells; also transient transfection
# PROTOCOL DESCRIPTION: NR2F6 agonist screening, Firefly signal cmpd/DMSO
# Format: cell-based
# RECORDED CONDITIONS: C11 analogs follow set (Tables 2-10), repeat 1
EXPERIMENTAL READOUT: Firefly, cmpd/DMSO repeat 1

[
  {
    "SMILES REPRESENTATION": "COc1ccc2oc(=O)c(S(=O)(=O)c3ccc(C)c(C)c3)cc2c1",
    "TARGET DESC": "NR2F6 (Homo sapiens, UniProt P10588)",
    "EXPERIMENTAL READOUT": "Firefly, cmpd/DMSO repeat 1",
    "RECORDED NUMBER": 0.9
  },
  {
    "SMILES REPRESENTATION": "Cc1cc(C)cc(S(=O)(=O)c2cc3cc(Br)ccc3oc2=O)c1",
    "TARGET DESC": "NR2F6 (Homo sapiens, UniProt P10588)",
    "EXPERIMENTAL READOUT": "Firefly, cmpd/DMSO repeat 1",
    "RECORDED NUMBER": 0.8
  },
  {
    "SMILES REPRESENTATION": "O=c1oc2ccc(Cl)cc2cc1S(=O)(=O)c1cc(F)cc(F)c1",
    "TARGET DESC": "NR2F6 (Homo sapiens, UniProt P10588)",
    "EXPERIMENTAL READOUT": "Firefly, cmpd/DMSO repeat 1",
    "RECORDED NUMBER": 10.6
  },
  {
    "SMILES REPRESENTATION": "COc1cc(NC(=O)c2ccc3oc(=O)c(S(=O)(=O)c4ccc(Cl)cc4)cc3c2)cc(OC)c1",
    "TARGET DESC": "NR2F6 (Homo sapiens, UniProt P10588)",
    "EXPERIMENTAL READOUT": "Firefly, cmpd/DMSO repeat 1",
    "RECORDED NUMBER": 2.1
  },
  {
    "SMILES REPRESENTATION": "COc1ccc2cc(S(=O)(=O)c3ccc(C)c(Cl)c3)c(=O)oc2c1",
    "TARGET DESC": "NR2F6 (Homo sapiens, UniProt P10588)",
    "EXPERIMENTAL READOUT": "Firefly, cmpd/DMSO repeat 1",
    "RECORDED NUMBER": 2.0
  },
  {
    "SMILES REPRESENTATION": "O=c1oc2ccc(Cl)cc2cc1S(=O)(=O)c1ccc(Cl)cc1",
    "TARGET DESC": "NR2F6 (Homo sapiens, UniProt P10588)",
    "EXPERIMENTAL READOUT": "Firefly, cmpd/DMSO repeat 1",
    "RECORDED NUMBER": 2.6
  },
  {
    "SMILES REPRESENTATION": "COc1ccc(S(=O)(=O)c2cc3cc(Cl)ccc3oc2=O)cc1",
    "TARGET DESC": "NR2F6 (Homo sapiens, UniProt P10588)",
    "EXPERIMENTAL READOUT": "Firefly, cmpd/DMSO repeat 1",
    "RECORDED NUMBER": 9.5
  },
  {
    "SMILES REPRESENTATION": "O=c1oc2ccccc2cc1S(=O)(=O)c1ccc(Cl)cc1",
    "TARGET DESC": "NR2F6 (Homo sapiens, UniProt P10588)",
    "EXPERIMENTAL READOUT": "Firefly, cmpd/DMSO repeat 1",
    "RECORDED NUMBER": 5.7
  },
  {
    "SMILES REPRESENTATION": "COc1ccc2cc(S(=O)(=O)c3ccc(Cl)cc3)c(=O)oc2c1",
    "TARGET DESC": "NR2F6 (Homo sapiens, UniProt P10588)",
    "EXPERIMENTAL READOUT": "Firefly, cmpd/DMSO repeat 1",
    "RECORDED NUMBER": 2.2
  },
  {
    "SMILES REPRESENTATION": "CCN(CC)c1ccc2cc(S(=O)(=O)c3ccc(Cl)cc3)c(=O)oc2c1",
    "TARGET DESC": "NR2F6 (Homo sapiens, UniProt P10588)",
    "EXPERIMENTAL READOUT": "Firefly, cmpd/DMSO repeat 1",
    "RECORDED NUMBER": 3.9
  },
  {
    "SMILES REPRESENTATION": "O=C(NCCc1ccccc1)c1ccc2oc(=O)c(S(=O)(=O)c3ccc(Cl)cc3)cc2c1",
    "TARGET DESC": "NR2F6 (Homo sapiens, UniProt P10588)",
    "EXPERIMENTAL READOUT": "Firefly, cmpd/DMSO repeat 1",
    "RECORDED NUMBER": 4.5
  },
  {
    "SMILES REPRESENTATION": "O=c1oc2ccc(Cl)cc2cc1S(=O)(=O)c1ccc(Br)cc1",
    "TARGET DESC": "NR2F6 (Homo sapiens, UniProt P10588)",
    "EXPERIMENTAL READOUT": "Firefly, cmpd/DMSO repeat 1",
    "RECORDED NUMBER": 5.0
  },
  {
    "SMILES REPRESENTATION": "CC(C)(C)c1ccc(S(=O)(=O)c2cc3cc([N+](=O)[O-])ccc3oc2=O)cc1",
    "TARGET DESC": "NR2F6 (Homo sapiens, UniProt P10588)",
    "EXPERIMENTAL READOUT": "Firefly, cmpd/DMSO repeat 1",
    "RECORDED NUMBER": 6.6
  },
  {
    "SMILES REPRESENTATION": "O=c1oc2ccccc2cc1S(=O)(=O)c1cccc(Cl)c1",
    "TARGET DESC": "NR2F6 (Homo sapiens, UniProt P10588)",
    "EXPERIMENTAL READOUT": "Firefly, cmpd/DMSO repeat 1",
    "RECORDED NUMBER": 9.2
  },
  {
    "SMILES REPRESENTATION": "O=c1oc2ccc(Br)cc2cc1S(=O)(=O)c1cccc(F)c1",
    "TARGET DESC": "NR2F6 (Homo sapiens, UniProt P10588)",
    "EXPERIMENTAL READOUT": "Firefly, cmpd/DMSO repeat 1",
    "RECORDED NUMBER": 1.2
  },
  {
    "SMILES REPRESENTATION": "COc1ccc(S(=O)(=O)c2cc3cc(Br)ccc3oc2=O)cc1",
    "TARGET DESC": "NR2F6 (Homo sapiens, UniProt P10588)",
    "EXPERIMENTAL READOUT": "Firefly, cmpd/DMSO repeat 1",
    "RECORDED NUMBER": 19.3
  }
]
